Below, each entry is listed alongside its reported MIC.
- System: Streptococcus pyogenes
- testName: Antimicrobial activity against inducibly erythromycin resistant Streptococcus pyogenes 01-968 expressing i-ermA incubated in CAMHB medium for 20 to 24 hrs by two-fold microbroth dilution method
- Type: functional
# value in µg/mL; strip the unit string

Recorded MIC, per entry:
smilesEntry: CC[C@H]1OC(=O)[C@H](C)[C@@H](OC(=O)CCNCCCc2ccc(-n3ccnc3)cc2)[C@H](C)[C@@H](O[C@@H]2O[C@H](C)C[C@H](N(C)C)[C@H]2O)[C@](C)(OC)C[C@@H](C)/C(=N\OC)[C@H](C)[C@H]2OC(=O)O[C@@]21C
targetOrTestSystem: Streptococcus pyogenes
measuredEndpoint: MIC
measValue: 16
--
smilesEntry: CC[C@H]1OC(=O)[C@H](C)[C@@H](OCC#Cc2ccc(OCc3ccccc3)cc2)[C@H](C)[C@@H](O[C@@H]2O[C@H](C)C[C@H](N(C)C)[C@H]2O)[C@](C)(OC)C[C@@H](C)/C(=N\OC)[C@H](C)[C@H]2OC(=O)O[C@@]21C
targetOrTestSystem: Streptococcus pyogenes
measuredEndpoint: MIC
measValue: 4

Please turn your attention to the following entry.
Task: For the compound `CC[C@H]1OC(=O)[C@H](C)[C@@H](OC(=O)CCNCCNc2cc3c(=O)c(C(=O)O)cn(C4CC4)c3cc2Cl)[C@H](C)[C@@H](O[C@@H]2O[C@H](C)C[C@H](N(C)C)[C@H]2O)[C@](C)(OC)C[C@@H](C)/C(=N\OC)[C@H](C)[C@H]2OC(=O)O[C@@]21C` , what MIC is on record?
Output: 16
